biological target: T1, Cynomolgus/Rhesus macaque FOLR1 Protein, His Tag (ACRO, F01-C52H8) (cynomolgus, UniProt A0A2K5U044 25-233); assay: ELISA, supernatant diluted 25x
T1 construct: also called cynomolgus FOLR1 protein; not shown: His tag
T1 sequence (A0A2K5U044 entry or part of it): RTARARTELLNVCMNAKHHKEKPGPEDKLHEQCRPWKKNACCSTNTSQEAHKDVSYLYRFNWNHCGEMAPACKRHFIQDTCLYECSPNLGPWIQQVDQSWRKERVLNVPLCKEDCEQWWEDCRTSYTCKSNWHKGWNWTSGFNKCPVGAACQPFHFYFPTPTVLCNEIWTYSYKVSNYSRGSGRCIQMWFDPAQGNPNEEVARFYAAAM
Consider the following binders; for each one, report its OD450.

Problem: Please give the measured OD450 for this binder: F48 (antibody, V domains shown, also called clone F48; anti-FOLR1 antibody F48) VH: EVQLLESGGGVVQPGRSLRLSCAASGFTFSSYGMHWVRQAPGKGLEWVAVISYDGSNKYYADSVKGRFTISRDNSKNTLYLHMNSLRAEDTAVYYCARPRAYYGAYGSSFDYWGQGTQVTVSS VL: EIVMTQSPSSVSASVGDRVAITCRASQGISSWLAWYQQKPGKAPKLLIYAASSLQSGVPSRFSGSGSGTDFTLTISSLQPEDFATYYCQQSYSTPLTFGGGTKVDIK
Result: 0.908

Problem: Which OD450 is listed for F123 (antibody, V domains shown, also called clone F123; anti-FOLR1 antibody F123) VH: EVQLLESGGGVVQPERSLRLSCAASGFTFSSYGMHWVRQAPGKGLEWVAVISYDGSNKYYADSVKGRFTISRANSKNTLYLQMNSLRAEDTAVYYCARPRAYYGAYGSSFDYWGQGTQVTVSS VL: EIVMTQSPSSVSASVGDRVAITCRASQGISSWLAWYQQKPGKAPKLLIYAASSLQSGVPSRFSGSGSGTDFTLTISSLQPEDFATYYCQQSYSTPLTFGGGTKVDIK ?
Result: 1.07
